Molecular target: Cytochrome P450 2C9 (Homo sapiens) (UniProt P11712)
Sequence (P11712 whole entry, looked up): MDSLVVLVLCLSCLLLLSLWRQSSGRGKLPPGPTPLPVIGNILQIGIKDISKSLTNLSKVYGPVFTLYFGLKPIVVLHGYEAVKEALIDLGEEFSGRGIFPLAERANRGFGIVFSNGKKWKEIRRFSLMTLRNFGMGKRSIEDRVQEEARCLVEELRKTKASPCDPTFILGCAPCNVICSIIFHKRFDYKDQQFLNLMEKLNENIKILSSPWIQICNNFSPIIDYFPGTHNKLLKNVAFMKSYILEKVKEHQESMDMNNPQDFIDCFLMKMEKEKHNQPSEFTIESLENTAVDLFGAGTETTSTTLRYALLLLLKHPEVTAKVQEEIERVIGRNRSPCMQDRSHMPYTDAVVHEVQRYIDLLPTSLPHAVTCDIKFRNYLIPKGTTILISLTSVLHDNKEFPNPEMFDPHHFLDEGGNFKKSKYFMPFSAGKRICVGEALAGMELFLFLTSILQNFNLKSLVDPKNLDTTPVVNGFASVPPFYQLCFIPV
Test: Cytochrome panel assay with activity outcomes; also: % is scaled to controls: 0 for no effect and ±100 for the full control effect
Details: recombinant CYP, pro-luciferin dealkylation, luminescence, p450-cyp2c9; series mostly up to 57.1 µM
The whole screen tested about 16,000 compounds, of which about 4,000 (25%) were called active. Another 26% or so got no clear call; they are omitted. Not all results are given here.
Assignment: determine reported activity, negative = inhibition for the given compounds.

What value of activity, negative = inhibition has been recorded for this entry: "CO[C@@H]1COC(=O)[C@H](C)NC(=O)[C@@H](C)COC(=O)CCC[C@H]1C"
10.9% [at 11.4 µM] (inactive)

What value of activity, negative = inhibition has been recorded for this entry: "CCCNC(=O)OC[C@@H]1O[C@H](CCO/N=C\C[C@H]2C=C[C@H](OC(C)=O)[C@@H](COC(C)=O)O2)C=C[C@@H]1Oc1ccc(OC)cc1"
-11.7% [at 11.4 µM] (inactive)

What value of activity, negative = inhibition has been recorded for this entry: "COc1ccccc1CNc1cc(-c2cccnc2)ncn1"
-0.576% [at 2.29 µM] (inactive)

What value of activity, negative = inhibition has been recorded for this entry: "O=C(O)CN(CCN(CC(=O)O)CC(=O)O)CC(=O)O.[Cu]"
4.98% [at 11.4 µM] (inactive)

What value of activity, negative = inhibition has been recorded for this entry: "COc1cccc([C@H](O)Cn2cc(-c3ccc(CON=C(C)C)cc3)nn2)c1"
-13.3% [at 11.4 µM] (inactive)

What value of activity, negative = inhibition has been recorded for this entry: "COc1ccc(Br)c2c1C[C@H](C(=O)O)CC2"
-27.4% [at 11.4 µM] (inactive)

What value of activity, negative = inhibition has been recorded for this entry: "CN(C)Cc1ccccc1-c1cncnc1NCc1cccnc1"
11.6% [at 2.29 µM] (inactive)

What value of activity, negative = inhibition has been recorded for this entry: "COc1ccc(CNc2cc(-c3cccnc3)ncn2)c(OC)c1"
17.1% [at 2.29 µM] (inactive)

What value of activity, negative = inhibition has been recorded for this entry: "Nc1nc(-c2ccc3ccccc3c2)cc(-c2cc(-c3ccc4ccccc4c3)nc(N)n2)n1"
8.18% [at 11.4 µM] (inactive)

What value of activity, negative = inhibition has been recorded for this entry: "C=CC[C@@H]1C=C[C@@H](O/N=C\[C@@H](OC)[C@H](C)/C=C\CC(=O)OC)[C@@H](CO)O1"
21.3% [at 11.4 µM] (inactive)

What value of activity, negative = inhibition has been recorded for this entry: "O=C1C=C[C@@H](O)[C@H]2[C@@H]3C(=O)N(c4cccc(Oc5ccccc5)c4)C(=O)[C@@H]3CC[C@H]12"
-24.8% [at 11.4 µM] (inactive)

What value of activity, negative = inhibition has been recorded for this entry: "COC(=O)[C@@H]1CC[C@H](C)[C@@H](c2ccc(C)cc2)N1C(=O)c1ccc(/C=N\OC[C@@H]2O[C@H](c3ccccc3)C=C[C@@H]2Oc2ccc(OC)cc2)cc1"
-16.2% [at 11.4 µM] (inactive)

What value of activity, negative = inhibition has been recorded for this entry: "CC(C)(C)N1C(=O)[C@H]2[C@H]3[C@H](O)[C@H](O)C/C(=N/NC(=O)OCc4ccccc4)[C@@H]3CC[C@@H]2C1=O"
29.2% [at 11.4 µM] (inactive)

What value of activity, negative = inhibition has been recorded for this entry: "CO/N=C(\C)CCN1CCCCc2nc(C)c(C)cc21"
8.57% [at 11.4 µM] (inactive)

What value of activity, negative = inhibition has been recorded for this entry: "CN(CCO)Cc1ncccc1O"
-2.29% [at 11.4 µM] (inactive)

What value of activity, negative = inhibition has been recorded for this entry: "c1csc(CNc2cc(-c3ccoc3)ncn2)c1"
-7.77% [at 2.29 µM] (inactive)

What value of activity, negative = inhibition has been recorded for this entry: "COC(=O)C/C=C\[C@@H](C)[C@@H](/C=N\OC[C@@H](O)COCc1ccco1)OC"
-26.7% [at 11.4 µM] (inactive)

What value of activity, negative = inhibition has been recorded for this entry: "COC(=O)C/C=C\[C@@H](C)[C@@H](/C=N\O[C@@H](C)c1cn([C@H](CO)Cc2ccccc2)nn1)NS(=O)(=O)c1ccc(C)cc1"
-29.2% [at 11.4 µM] (inactive)

What value of activity, negative = inhibition has been recorded for this entry: "C=CC[C@@H]1C=C[C@H](ON=C(C)C)[C@H](CO)O1"
12% [at 11.4 µM] (inactive)
